# target: D(1A) dopamine receptor (Rattus norvegicus) (UniProt P18901)
# Sequence (P18901 whole entry): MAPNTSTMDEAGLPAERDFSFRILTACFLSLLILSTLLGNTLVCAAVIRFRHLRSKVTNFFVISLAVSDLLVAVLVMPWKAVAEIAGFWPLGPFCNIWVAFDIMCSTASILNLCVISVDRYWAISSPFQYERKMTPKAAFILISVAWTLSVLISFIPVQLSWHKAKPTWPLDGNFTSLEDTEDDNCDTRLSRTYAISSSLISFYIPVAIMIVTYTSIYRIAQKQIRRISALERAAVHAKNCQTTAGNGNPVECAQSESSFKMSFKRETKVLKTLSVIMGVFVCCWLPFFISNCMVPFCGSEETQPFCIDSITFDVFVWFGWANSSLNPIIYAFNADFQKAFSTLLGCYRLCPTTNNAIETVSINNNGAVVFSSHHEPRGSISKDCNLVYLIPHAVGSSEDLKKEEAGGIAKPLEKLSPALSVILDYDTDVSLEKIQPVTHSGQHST
# assay: The percentage stimulation of adenylate cyclase activity of compound was measured on dopamine receptor D1 of Rat Striatum at 10 uM
# Type: functional
# measurementContext: values are per cent of control
measuredParameter: residual activity (%)
Enter your answer as a number in %; do not include the unit.

Answered cases to consult:
structure	value
Br.CCCN(CCC)CCc1ccc(Cl)c(O)c1	115
Br.CCCN(CCCc1ccc(O)cc1)CCc1ccc(Cl)c(O)c1	110
CCCN(CCc1cccc(O)c1)CCc1ccc(Cl)c(O)c1	128

Summary: CCCN(CCc1ccccc1)CCc1ccc(Cl)c(O)c1 , D(1A) dopamine receptor (Rattus norvegicus) (UniProt P18901), residual activity = 128

Sample Br.NCCc1ccc(Cl)c(O)c1 , system: D(1A) dopamine receptor (Rattus norvegicus) (UniProt P18901). Its residual activity is 105

Item CCCN(CCc1ccc(O)cc1)CCc1ccc(Cl)c(O)c1 ; assay system D(1A) dopamine receptor (Rattus norvegicus) (UniProt P18901); residual activity reported as 136

---

# target: D(2) dopamine receptor (Rattus norvegicus) (UniProt P61169)
# Sequence (P61169 whole entry): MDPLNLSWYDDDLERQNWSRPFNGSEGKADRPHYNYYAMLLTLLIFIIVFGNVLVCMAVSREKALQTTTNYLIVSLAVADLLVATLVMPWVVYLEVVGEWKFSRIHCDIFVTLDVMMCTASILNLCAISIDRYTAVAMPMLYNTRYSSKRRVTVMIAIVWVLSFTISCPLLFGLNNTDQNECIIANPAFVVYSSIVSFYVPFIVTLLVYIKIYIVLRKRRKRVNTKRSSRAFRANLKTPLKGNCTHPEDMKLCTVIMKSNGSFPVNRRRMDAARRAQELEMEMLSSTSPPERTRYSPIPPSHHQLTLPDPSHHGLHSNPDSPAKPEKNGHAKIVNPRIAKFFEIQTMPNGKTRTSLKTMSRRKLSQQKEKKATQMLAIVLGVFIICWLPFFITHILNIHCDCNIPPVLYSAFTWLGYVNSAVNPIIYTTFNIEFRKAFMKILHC
# assay: The percentage inhibition of adenylate cyclase activity of compound was measured on dopamine receptor D2 of Rat Striatum at 1 micro M
# measurementContext: values are per cent of control
Note to self: use Met only for residual activity readings below 80%; a reading exactly at 80% still gets Not met.

structure	labelValue
CCCN(CCc1cccc(O)c1)CCc1ccc(Cl)c(O)c1	Not met
Br.NCCc1ccc(Cl)c(O)c1	Not met
CCCN(CCc1ccc(O)cc1)CCc1ccc(Cl)c(O)c1	Met

Task: Hello, I'm reviewing records and need to know if residual activity of NCCc1ccc(O)c(O)c1 is below 80%. Could you check?
Result: Not met

Task: # strict comparison: is reported residual activity < 80%? input = Br.CCCN(CCC)CCc1ccc(Cl)c(O)c1
Result: Not met

Task: Hello, is residual activity of the following compound strictly smaller than 80%? CCCN(CCc1ccccc1)CCc1cccc(O)c1
Result: Not met

---

# target: D(1A) dopamine receptor (Rattus norvegicus) (UniProt P18901)
# assay: Percent stimulation of adenylate cyclase activity at dopamine receptor D1 of Rat Striatum at 1 uM
# Type: functional
# measurementContext: values are per cent of control
measuredParameter: residual activity (%)
Numeric only. Scale: %

Answered examples (2):
structure	residual activity, %
CCCN(CCc1ccc(O)cc1)CCc1ccc(Cl)c(O)c1	136
NCCc1ccc(O)c(O)c1	110

Consider the record given below.
residual activity in this record for CCCN(CCc1cccc(O)c1)CCc1ccc(Cl)c(O)c1 : 125
